# test protocol: solvent given as SMILES
# condition summary: in ClCCl
# if value of fluorescence lifetime reaches 2 ns, tag 1 (yes); if it stays below, tag 0 (no)

Sample answers from the record:
>>> df
                                   compound  assigned_category
0  CCN1\C(=C/C=C/C=C/C2=[N+](CC)c3ccc4ccccc4c3C2(C)C)C(C)(C)c2c1ccc1ccccc21             0 (no)
1  CCN(CC)c1ccc2cc(/C(Cl)=C/C=C/C(=C(C#N)C#N)c3ccc4c(c3)c3ccccc3n4CC)c(=O)oc2c1             0 (no)
2              Nc1nc2ccc([N+](=O)[O-])cc2s1            1 (yes)

In plain terms: is recorded fluorescence lifetime at least 2 ns for "CCN(CC)c1ccc2cc(C#N)/c(=N\C(=O)c3ccccc3)oc2c1" ?
1 (yes)

In plain terms: is recorded fluorescence lifetime at least 2 ns for CCCCC(CC)COc1ccc2nc(-c3ccc(-c4cccs4)s3)sc2c1 (stereo not given) ?
0 (no)
